- experimental protocol: Half-lives after intravenous dosage in guinea pigs
- measurement context: guinea pig, in vivo, 10 mg/kg, two guinea pigs, i.v. 10 mg/kg, read-out: half-life, distribution phase (converted)
measured endpoint: half-life (min)
Could you give me the number in min? Just the number is fine.

Return reported half-life; argument: `Clc1cc2c(cc1Cl)Sc1cc(Cl)c(Cl)cc1N2` 25.2

* * *

- experimental protocol: Half-lives after intravenous dosage in rats
- measurement context: rat, in vivo, 5 mg/kg, two rats, i.v. 5 mg/kg, read-out: half-life, elimination phase (converted)
measured endpoint: half-life (min)
The answer is to be given in min; state only the numeric part.

half-life for `Clc1cc2c(cc1Cl)Sc1cc(Cl)c(Cl)cc1N2` ? 325

Cited source for all entries: patent US20050288279A1
